- Tested on: Trichophyton rubrum
- assay explanation: MIC/MFC broth microdilution (CLSI)
- condition context: Trichophyton rubrum
property: MIC

CCCCCCCCCN1CCC[C@H]1C(=O)N[C@@H](CC(=O)O)C(=O)O = > 128 µg/mL
CCCCCCCCCCCN1CCC[C@H]1C(=O)N[C@@H](CC(=O)O)C(=O)O = > 128 µg/mL
CCCCCCCCCN1CCC[C@H]1C(=O)N[C@H](CC(=O)O)C(=O)O = > 128 µg/mL
